Molecular target: T1, glucose-dependent insulinotropic peptide (gastric inhibitory polypeptide) receptor (GIPR) (human, UniProt P48546 22-466)
T1 sequence (looked up): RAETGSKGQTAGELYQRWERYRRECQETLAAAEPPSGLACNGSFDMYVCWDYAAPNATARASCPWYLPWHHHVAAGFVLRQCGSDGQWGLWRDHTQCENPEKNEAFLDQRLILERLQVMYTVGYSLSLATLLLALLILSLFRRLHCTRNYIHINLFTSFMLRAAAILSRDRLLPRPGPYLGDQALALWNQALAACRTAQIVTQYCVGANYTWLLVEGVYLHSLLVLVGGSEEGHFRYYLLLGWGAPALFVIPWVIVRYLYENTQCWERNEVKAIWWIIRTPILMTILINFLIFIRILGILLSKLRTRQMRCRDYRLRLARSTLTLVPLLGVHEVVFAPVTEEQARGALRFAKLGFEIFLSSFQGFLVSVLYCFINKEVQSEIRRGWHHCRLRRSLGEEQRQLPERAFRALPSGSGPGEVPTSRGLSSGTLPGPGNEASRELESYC
Assay: cell-based or functional assay
Starred links: 1 amine or outer side, 2 acyl side, 3 side chain; linkers in the order of their positions; H or OH if unused. Non-standard residues stand in square brackets, D forms with d. Groups on a side chain read outwards from the residue. Primed or numbered codes have the meaning given here. No end group written: not given here. *: point of attachment. γGlu = O=C(O)[C@H](CCC(=O)[*:2])N[*:1]; Stearoyl = CCCCCCCCCCCCCCCCCC(=O)*; αMeF = C[C@](N)(Cc1ccccc1)C(=O)O; αMeK = C[C@](N)(CCCCN)C(=O)O; Lauroyl = CCCCCCCCCCCC(=O)*; αMeS = C[C@](N)(CO)C(=O)O; PEG2′ = not defined here; Aib = CC(C)(N)C(=O)O
endpointName: cAMP Primary assay EC50 GIP-R (nM)

Recorded cAMP Primary assay EC50 GIP-R of H[Aib]EGS[αMeF]TSDV[αMeS]S[αMeF]LEGEAAK([PEG2′-Lauroyl])E[αMeF]IA[αMeF]VV[αMeK]GG-NH2 [SEQ ID NO 134] , please.
28

Recorded cAMP Primary assay EC50 GIP-R of H[Aib]EGS[αMeF]TSDVK([PEG2′-PEG2′-γGlu-Stearoyl])S[αMeF]LEGEAA[αMeK]E[αMeF]IA[αMeF]VV[αMeK]GG-NH2 [SEQ ID NO 118] , please.
25

Recorded cAMP Primary assay EC50 GIP-R of H[Aib]EGS[αMeF]TSDK([PEG2′-PEG2′-γGlu-Stearoyl])[αMeS]S[αMeF]LEGEAA[αMeK]E[αMeF]IA[αMeF]VV[αMeK]GG-NH2 [SEQ ID NO 119] , please.
25

Recorded cAMP Primary assay EC50 GIP-R of H[Aib]EGS[αMeF]TSDV[αMeS]S[αMeF]LEGEAA[αMeK]E[αMeF]IK([PEG2′-PEG2′-γGlu-Stearoyl])[αMeF]VV[αMeK]GG-NH2 [SEQ ID NO 105] , please.
25
